Origin of the recorded values: patent US10308686B2

system: methicillin-resistant S. aureus (ATCC 33592); details: Table 7
Measurement Kind: MIC, Gram positive S. aureus

Req: Reported MIC, Gram positive S. aureus, compound CCCCCCCCCCCCCCCC(=O)N[C@@H](C)CN(CC(=O)N[C@@H](C)CN(CC(=O)N[C@@H](CCC(=O)O)CN(CC(=O)N[C@@H](CCC(=O)O)CN(CC(=O)N[C@@H](CCC(=O)O)CN(CC(N)=O)C(=O)CC(=O)O)C(=O)CC(=O)O)C(=O)CC(=O)O)C(C)=O)C(C)=O [Sequence 7] : ____
Resp: >100 µg/mL

Req: Next compound up: CCCCCCCCCCCCCCCC(=O)N[C@@H](C)CN(CC(=O)N[C@@H](C)CN(CC(=O)N[C@@H](Cc1ccccc1)CN(CC(=O)N[C@@H](Cc1ccccc1)CN(CC(=O)N[C@@H](Cc1ccccc1)CN(CC(N)=O)C(=O)CC(=O)O)C(=O)CC(=O)O)C(=O)CC(=O)O)C(C)=O)C(C)=O [Sequence 8]
Resp: >100 µg/mL

* * *

system: multi-drug resistant S. epidermidis (RP62A); conditions: Table 7
Kindly state MIC, Gram positive S. epidermidis for each of the entries shown.
# unit: µg/mL | format: bare number

Req: Reported MIC, Gram positive S. epidermidis, compound CCCCCCCCCCCCCCCC(=O)N[C@@H](CCCCN)CN(CC(=O)N[C@@H](CCCCN)CN(CC(=O)N[C@@H](CCCCN)CN(CC(N)=O)C(=O)CCCN)C(=O)CCCN)C(=O)CCCN [Sequence 4] : ____
Resp: 2

Req: Next compound up: CCCCCCCCCCCCCCCC(=O)N[C@@H](C)CN(CC(=O)N[C@@H](C)CN(CC(=O)N[C@@H](CC(C)C)CN(CC(=O)N[C@@H](CC(C)C)CN(CC(=O)N[C@@H](CC(C)C)CN(CC(N)=O)C(=O)CCCN)C(=O)CCCN)C(=O)CCCN)C(C)=O)C(C)=O [Sequence 6]
Resp: 4

Req: Next compound up: CCCCCCCC/C=C\CCCCCCCC(=O)N[C@@H](C)CN(CC(=O)N[C@@H](C)CN(CC(=O)N[C@@H](CC(C)C)CN(CC(=O)N[C@@H](CC(C)C)CN(CC(=O)N[C@@H](CC(C)C)CN(CC(N)=O)C(=O)CCCN)C(=O)CCCN)C(=O)CCCN)C(C)=O)C(C)=O [Sequence 13]
Resp: 3

Req: Next compound up: CCCCCCCC/C=C\CCCCCCCC(=O)N[C@@H](CCCCN)CN(CC(=O)N[C@@H](CCCCN)CN(CC(N)=O)C(=O)CCCN)C(=O)CCCN [Sequence 12]
Resp: 4

Req: Next compound up: CCCCCCCC/C=C\CCCCCCCC(=O)N[C@@H](CCCCN)CN(CC(N)=O)C(=O)CCCN [Sequence 10]
Resp: 2

Req: Next compound up: CCCCCCCCCCCCCCCC(=O)N[C@@H](CCCCN)CN(CC(=O)N[C@@H](CCCCN)CN(CC(N)=O)C(=O)CCCN)C(=O)CCCN [Sequence 3]
Resp: 2.5

* * *

test system: C. albicans (ATCC 10231); settings: ATCC 10231
Kindly state MIC, Fungus C. albicans for each of the entries shown.

Req: Reported MIC, Fungus C. albicans, compound `NCCCC[C@H]1CN(C(=O)CCc2ccccc2)CC(=O)N[C@@H](CCCCN)CN(C(=O)CCc2ccccc2)CC(=O)N[C@@H](CCCCN)CN(C(=O)CCc2ccccc2)CC(=O)N[C@@H](CCCCN)CN(C(=O)CCc2ccccc2)CC(=O)N[C@@H](Cc2ccccc2)CN(CC(N)=O)C(=O)CCC(=O)N1` : ____
Resp: > 50 µg/mL

Req: Next compound up: `CC(C)CCC(=O)N1CC(=O)N[C@@H](CCCCN)CN(C(=O)CCc2ccccc2)CC(=O)N[C@@H](Cc2ccccc2)CN(CC(N)=O)C(=O)CCC(=O)N[C@@H](CCCCN)CN(C(=O)CCc2ccccc2)CC(=O)N[C@@H](Cc2ccccc2)CN(C(=O)CCC(C)C)CC(=O)N[C@@H](CCCCN)CN(C(=O)CCc2ccccc2)CC(=O)N[C@@H](CCCCN)CN(C(=O)CCc2ccccc2)CC(=O)N[C@@H](Cc2ccccc2)C1`
Resp: 5 µg/mL

Req: Next compound up: `NCCCC[C@H]1CN(C(=O)CCc2ccccc2)CC(=O)N[C@@H](CCCCN)CN(C(=O)CCc2ccccc2)CC(=O)N[C@@H](CCCCN)CN(C(=O)CCc2ccccc2)CC(=O)N[C@@H](CCCCN)CN(C(=O)CCc2ccccc2)CC(=O)N[C@@H](CCCCN)CN(C(=O)CCc2ccccc2)CC(=O)N[C@@H](CCCCN)CN(C(=O)CCc2ccccc2)CC(=O)N[C@@H](Cc2ccccc2)CN(CC(N)=O)C(=O)CCC(=O)N1`
Resp: > 50 µg/mL

* * *

system: multi-drug resistant P. aeruginosa ATCC 27853; conditions: ATCC 27853
Kindly state MIC, P. aeruginosa for each of the entries shown.
# unit: µg/mL | format: bare number

Req: What reported MIC, P. aeruginosa corresponds to `NCCCC[C@H]1CN(C(=O)CCc2ccccc2)CC(=O)N[C@@H](CCCCN)CN(C(=O)CCc2ccccc2)CC(=O)N[C@@H](CCCCN)CN(C(=O)CCc2ccccc2)CC(=O)N[C@@H](CCCCN)CN(C(=O)CCc2ccccc2)CC(=O)N[C@@H](CCCCN)CN(C(=O)CCc2ccccc2)CC(=O)N[C@@H](Cc2ccccc2)CN(CC(N)=O)C(=O)CCC(=O)N1` on multi-drug resistant P. aeruginosa ATCC 27853?
Resp: 20

Req: Next compound up: `CC(C)CCC(=O)N1CC(=O)N[C@@H](Cc2ccccc2)CN(C(=O)CCC(C)C)CC(=O)N[C@@H](CCCCN)CN(C(=O)CCc2ccccc2)CC(=O)N[C@@H](CCCCN)CN(C(=O)CCc2ccccc2)CC(=O)N[C@@H](CCCCN)CN(C(=O)CCc2ccccc2)CC(=O)N[C@@H](CCCCN)CN(C(=O)CCc2ccccc2)CC(=O)N[C@@H](Cc2ccccc2)CN(CC(N)=O)C(=O)CCC(=O)N[C@@H](Cc2ccccc2)C1`
Resp: 8

* * *

tested on: human red blood cells (hRBC's); test: Hemolysis assay; type: cell-based
Kindly state Hemolysis H50 for each of the entries shown.
Your answer should be a number followed by the unit of measure.

Req: Reported Hemolysis H50, compound `CC(C)CCC(=O)N1CC(=O)N[C@@H](CCCCN)CN(C(=O)CCc2ccccc2)CC(=O)N[C@@H](Cc2ccccc2)CN(CC(N)=O)C(=O)CCC(=O)N[C@@H](CCCCN)CN(C(=O)CCc2ccccc2)CC(=O)N[C@@H](Cc2ccccc2)CN(C(=O)CCC(C)C)CC(=O)N[C@@H](CCCCN)CN(C(=O)CCc2ccccc2)CC(=O)N[C@@H](CCCCN)CN(C(=O)CCc2ccccc2)CC(=O)N[C@@H](Cc2ccccc2)C1` : ____
Resp: 450 µg/mL

Req: Next compound up: `CC(C)C[C@@H](CN(CC(=O)N[C@@H](CCCCN)CN(CC(N)=O)C(=O)CCc1ccccc1)C(=O)CCc1ccccc1)NC(=O)CN(C[C@H](CCCCN)NC(=O)CN(C[C@H](CCCCN)NC(=O)CN(C[C@H](CC(C)C)NC(=O)CN(C[C@H](CCCCN)NC(=O)CN(C[C@@H](N)CCCCN)C(=O)CCc1ccccc1)C(=O)CCc1ccccc1)C(=O)CCc1ccccc1)C(=O)CCc1ccccc1)C(=O)CCc1ccccc1`
Resp: 300 µg/mL

* * *

system: human red blood cells (hRBC's); assay: Hemolysis assay; format: cell-based; settings: red cells of human
Kindly state Hemolysis HC10 for each of the entries shown.
# unit: µg/mL | format: bare number

Req: Reported Hemolysis HC10, compound `CCCCCCCCCCCCCCCC(=O)N[C@@H](C)CN(CC(=O)N[C@@H](C)CN(CC(=O)N[C@@H](Cc1ccccc1)CN(CC(=O)N[C@@H](Cc1ccccc1)CN(CC(=O)N[C@@H](Cc1ccccc1)CN(CC(N)=O)C(=O)CC(=O)O)C(=O)CC(=O)O)C(=O)CC(=O)O)C(C)=O)C(C)=O` : ____
Resp: 200

Req: Next compound up: `CCCCCCCC/C=C\CCCCCCCC(=O)N[C@@H](CCCCN)CN(CC(=O)N[C@@H](CCCCN)CN(CC(N)=O)C(=O)CCCN)C(=O)CCCN`
Resp: 250

Req: Next compound up: `CC(=O)N(CC(=O)N[C@@H](C)CN(CC(=O)N[C@@H](CC(C)C)CN(CC(=O)N[C@@H](CC(C)C)CN(CC(=O)N[C@@H](CC(C)C)CN(CC(N)=O)C(=O)CCCN)C(=O)CCCN)C(=O)CCCN)C(C)=O)C[C@H](C)N`
Resp: 120

Req: Next compound up: `CCCCCCCC/C=C\CCCCCCCC(=O)N[C@@H](CCCCN)C(=O)N[C@@H](CCCCN)CN(CC(N)=O)C(=O)CCCN`
Resp: 80

Req: Next compound up: `CCCCCCCCCCCCCCCC(=O)N[C@@H](CCCCN)CN(CC(=O)N[C@@H](CCCCN)CN(CC(=O)N[C@@H](CCCCN)CN(CC(N)=O)C(=O)CCCN)C(=O)CCCN)C(=O)CCCN`
Resp: 300
